Measured pKd of individual entries
measuredTarget: T1, Recombinant protein RHAMM-CT (truncated RHAMM, carboxy terminus containing the HA binding domain, amino acids … (UniProt Q00547 706-766))
T1 chain: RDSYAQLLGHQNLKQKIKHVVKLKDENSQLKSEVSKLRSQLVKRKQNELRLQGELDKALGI
protocolDetails: SPR
pKd: −log10 of the molar value. Ends that are not written are not given here.

Solved cases (3 shown):
- binder: "EAFEDEEEEIDG-NH2 (Synthetic 12-mer made on Rink amide MBHA resin) [peptide 12a (SEQ ID NO: 12), unmodified tubulin-derived peptide]"
  pKd: 6.68
- binder: "GEFEEEAEEEVA-NH2 (Synthetic 12-mer made on Rink amide MBHA resin) [peptide 11a (SEQ ID NO: 11), unmodified tubulin-derived peptide, beta-IV CTT]"
  pKd: 6.89
- binder: "FTEAESNMNDLV-NH2 (Synthetic 12-mer made on Rink amide MBHA resin)"
  pKd: 7.52

API: the following record is the query input.
Just so you know, measured pKd for RPDYISWGTQEQ [15] came out at > 6.00
